test system: OVCAR-5 ovarian; assay: NCI-60 one-dose screen, 48 h; details: 10 µM unless noted
Compounds without any hit were thinned out: in the full panel of roughly 83,000, 20% have a hit. The source made the active and inactive calls. Rule for the calls: active = growth percent below 10; inactive = the rest.
Please reply with one of these outcomes: YES = active, NO = inactive

Known results for compounds:
CC(=O)Nc1cccc(C2=CC(c3ccc(C)cc3)n3ncnc3N2)c1 (stereo not drawn) :: NO
C=CC(=O)N[C@@H](Cc1ccc(-c2cc(Cl)cc(Cl)c2)cc1)[C@@H](O)[C@H](O)C(=O)O :: NO

# next compound below
Prompt: Returns: the outcome recorded for CCCCN1CCN(c2ccc3nc(-c4ccc5nc(-c6ccc(OCC)c(OCC)c6)[nH]c5c4)[nH]c3c2)CC1 in this assay.
Response: NO

====

Tested on: CAKI-1 renal
Assay: NCI-60 one-dose screen, 48 h (100 = growth as untreated, 0 = no growth, -100 = all killed)
Settings: 10 µM unless noted
Method: Growth inhibition of the CAKI-1 human tumor cell line is measured as a screen for anti-cancer activity. Cells are grown in 96 well plates and exposed to the test compound for 48 hours. Compounds are tested at a single concentration, which is 10^-5 M for most compounds. The reported endpoint is percent growth (GI% or GIPRCNT), where numbers from 0 - 100% represent growth inhibition, and numbers from -100% - 0 represent cell death. For example, a value of 40 represents 60% growth inhibition. […]
Compounds without any hit were thinned out: in the full panel of roughly 83,000, 20% have a hit. Active and inactive are the calls of the source. Rule for the calls: active = growth percent below 10; inactive = the rest.
Would you mind telling me the reported growth of each entry?

Known results for compounds:
Cc1[nH]c(-c2nc3ccccc3[nH]2)c(C)c1C(=O)NNc1ccc(Cl)cc1 :: 80.2% (inactive)
COc1ccc(N(C)c2nc(Cl)nc3cnn(C)c23)cc1 :: 22.9% (inactive)
CC(C)n1nc(C#Cc2cccc(O)c2)c2c(N)ncnc21 :: -66.8% (active)

Fill in growth for each of the 2 compounds listed.
1. CN1CCN(C2=C(Cl)C(=O)c3ccccc3C2=O)CC1
2. C=C1c2c(C)nn(-c3ccc(N)cc3)c2N(C)C23CC1C1(C)c4c(C)nn(-c5ccc(N)cc5)c4N(C)C(C)(CC12)C3 (stereo not given)

Response:
1. 77% (inactive)
2. 76.6% (inactive)

====

tested on: SNB-19 CNS; assay: NCI-60 one-dose screen, 48 h; conditions: 10 µM unless noted
The panel holds about 83,000 compounds, 20% with a hit somewhere; the sample as a whole holds those more often. Active and inactive are the calls of the source. The calls were made as follows: active = growth percent below 10; inactive = the rest.
Please reply with one of these outcomes: active, inactive

Known results for compounds:
O=C(CC12CC3CC(CC(C3)C1)C2)NCCOCCOCCNC(=O)c1cc2c(o1)C(=O)c1ccccc1C2=O :: active
Nc1nc(Nc2ccc(Cl)cc2)nn1S(=O)(=O)c1ccc(-c2ccc(F)cc2)cc1 :: inactive
CCN(CC)c1ccc(Nc2ccc(CC(=O)c3ccccc3)cc2)cc1 :: inactive

# next compound below
Prompt: Returns: the outcome recorded for COc1cc2c(cc1OC)-c1ccc3cc4c(cc3c1N(CCCN1CCCCC1)C2)OCO4 in this assay.
Response: inactive

====

tested on: SF-539 CNS; assay: NCI-60 one-dose screen, 48 h (100 = growth as untreated, 0 = no growth, -100 = all killed); conditions: 10 µM unless noted
This is part of a sample that, as a whole, favours compounds with a hit. Of some 83,000 tested, about 20% had one in any assay.
Would you mind telling me the reported growth of each entry?
Give bare numbers, in %.

O=C(Oc1ccc([N+](=O)[O-])cc1)c1ccc(CBr)cc1 :: 97

Fill in growth for each of the 4 molecules listed.
1. CCOc1cc(N)ccc1C(=O)NCCCN(CC)CC
2. O=C(CCCCCCCn1cc(-c2cccnc2)nn1)Nc1ccccc1-c1ccccc1
3. C=C1C(=O)O[C@H]2[C@H]1CC/C(COC(=O)/C=C\C(=O)NCc1ccc(Cn3c(=O)sn(CCCC)c3=O)cc1)=C\CC[C@@]1(C)O[C@@H]21
4. CCOC(=O)c1nnn(-c2ccccc2)c1C1=CN(C)CCC1

Response:
100
-7.88
-98.9
95.2
